# System under test: UniProtKB O14746
# Sequence (O14746 whole entry): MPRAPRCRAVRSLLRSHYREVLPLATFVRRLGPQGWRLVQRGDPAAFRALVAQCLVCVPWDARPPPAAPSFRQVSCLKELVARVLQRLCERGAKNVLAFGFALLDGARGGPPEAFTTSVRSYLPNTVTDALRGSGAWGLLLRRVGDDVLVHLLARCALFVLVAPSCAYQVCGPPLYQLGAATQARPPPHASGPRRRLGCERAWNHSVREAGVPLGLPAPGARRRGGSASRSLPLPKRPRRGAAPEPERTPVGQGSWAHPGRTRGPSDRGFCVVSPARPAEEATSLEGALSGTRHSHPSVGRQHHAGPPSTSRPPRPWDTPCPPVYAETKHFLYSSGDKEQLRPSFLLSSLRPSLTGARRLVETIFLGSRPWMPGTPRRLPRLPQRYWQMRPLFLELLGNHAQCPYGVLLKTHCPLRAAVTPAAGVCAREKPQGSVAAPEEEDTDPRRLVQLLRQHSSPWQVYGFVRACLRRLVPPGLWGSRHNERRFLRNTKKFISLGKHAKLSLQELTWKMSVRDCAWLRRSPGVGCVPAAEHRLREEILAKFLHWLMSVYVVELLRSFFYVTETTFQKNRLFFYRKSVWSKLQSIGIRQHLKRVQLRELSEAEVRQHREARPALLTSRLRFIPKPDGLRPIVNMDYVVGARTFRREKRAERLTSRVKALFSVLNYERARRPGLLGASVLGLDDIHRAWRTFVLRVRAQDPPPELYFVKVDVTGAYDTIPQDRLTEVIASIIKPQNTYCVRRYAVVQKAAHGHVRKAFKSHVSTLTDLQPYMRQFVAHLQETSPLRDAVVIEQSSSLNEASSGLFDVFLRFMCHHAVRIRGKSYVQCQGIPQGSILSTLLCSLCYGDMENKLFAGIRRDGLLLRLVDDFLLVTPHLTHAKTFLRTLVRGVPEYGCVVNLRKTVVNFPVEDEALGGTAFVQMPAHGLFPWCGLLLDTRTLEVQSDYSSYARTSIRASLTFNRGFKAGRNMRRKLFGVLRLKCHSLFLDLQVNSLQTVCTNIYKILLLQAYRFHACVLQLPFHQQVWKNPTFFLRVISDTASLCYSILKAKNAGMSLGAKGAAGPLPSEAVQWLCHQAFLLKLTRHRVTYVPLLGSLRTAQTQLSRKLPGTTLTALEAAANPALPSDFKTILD
# Procedure text: Inhibition of telomerase activity in human HT-29 cells using biotin-labeled TeloTAGGG as primer preincubated for 48 hrs followed by primer addition measured after 30 mins by PCR-ELISA
# Type: cell-based
pIC50: −log10 of the molar value.
Result type: pIC50

• CC1CCCC2(OC(O)C=CC2=O)O1 (mixture of isomers) = 7.07 to 7.90
